Test system: NCI-H23 lung
Protocol Summary: NCI tumour cell line growth inhibition, 48 h
// TGI lookup, one value per entry

Some solved entries appear below for comparison.
TGI lookup needed for Cc1cc(S(=O)(=O)Nc2nc(N)nc(N(C)C)n2)c(SCC(=O)O)cc1Cl , thanks. > 10 µM

Try this molecule too: Nc1nc2c(c(=O)[nH]1)C(c1ccc(Cl)cc1)C=C(c1ccccc1)N2 (centres undefined) 59.1 µM

Try this molecule too: CCOC(=O)C(NC(=O)c1ccccc1)(N1CCOCC1)C(F)(F)F (centres undefined) > 100 µM

New cases:
TGI lookup needed for CC[C@H]1C=CCC[C@@]2(C[C@@H]3CC[C@H]4[C@@H](C(=O)OCCCCCCCCCCCCCCCC(=O)N(CCCN)C[C@@H](O)CCN)[C@@]5(CCC[C@@H](C)O5)NC(=[N+]34)N2)O1 , thanks. 3.51 µM
